System: LOX IMVI
assay.comment: NCI 60 antitumor screening (single dose / five doses)
Format: cell-based
measurement.context: Homo sapiens; LOX IMVI (melanoma), single dose 10 μM; read-out: Growth inhibition percentage (GI %)
So I've got a bunch of compounds here, and I need their inhibition at 10 µM values.
Supply the numeric figure in %, leaving out any unit text.

Per the records, this compound ( C(=N\Nc1nc(N/N=C/c2ccc3c(c2)OCO3)nc(N2CCOCC2)n1)/c1ccc2c(c1)OCO2 [compound 6k] ) has inhibition at 10 µM equal to 30.1

Per the records, this compound ( Fc1cccc(/C=N/Nc2nc(N/N=C/c3cccc(F)c3)nc(N3CCOCC3)n2)c1 [compound 6e] ) has inhibition at 10 µM equal to 0.67

Per the records, this compound ( Brc1cccc(/C=N/Nc2nc(N/N=C/c3cccc(Br)c3)nc(N3CCOCC3)n2)c1 [compound 6c] ) has inhibition at 10 µM equal to 94.8

Per the records, this compound ( Oc1ccccc1/C=N/Nc1nc(N/N=C/c2ccccc2O)nc(N2CCOCC2)n1 [compound 6a] ) has inhibition at 10 µM equal to 96

Per the records, this compound ( Fc1cccc(Cl)c1/C=N/Nc1nc(N/N=C/c2c(F)cccc2Cl)nc(N2CCOCC2)n1 [compound 6l] ) has inhibition at 10 µM equal to 5.3

Per the records, this compound ( Brc1cccc(/C=N/Nc2nc(N/N=C/c3cccc(Br)c3)nc(N3CCCCC3)n2)c1 [compound 7c] ) has inhibition at 10 µM equal to -5.74

Per the records, this compound ( CN(C)c1ccc(/C=N/Nc2nc(N/N=C/c3ccc(N(C)C)cc3)nc(N3CCOCC3)n2)cc1 [compound 6g] ) has inhibition at 10 µM equal to 12.3

Per the records, this compound ( Clc1cccc(/C=N/Nc2nc(N/N=C/c3cccc(Cl)c3)nc(N3CCOCC3)n2)c1 [compound 6d] ) has inhibition at 10 µM equal to 67.4

Per the records, this compound ( Brc1ccccc1/C=N/Nc1nc(N/N=C/c2ccccc2Br)nc(N2CCCCC2)n1 [compound 7b] ) has inhibition at 10 µM equal to 1.94

Per the records, this compound ( Oc1ccccc1/C=N/Nc1nc(N/N=C/c2ccccc2O)nc(N2CCCCC2)n1 [compound 7a] ) has inhibition at 10 µM equal to 60.3

Per the records, this compound ( CN(C)c1ccc(/C=N/Nc2nc(N/N=C/c3ccc(N(C)C)cc3)nc(N3CCCCC3)n2)cc1 [compound 7g] ) has inhibition at 10 µM equal to 173

Per the records, this compound ( Fc1cccc(/C=N/Nc2nc(N/N=C/c3cccc(F)c3)nc(N3CCCCC3)n2)c1 [compound 7e] ) has inhibition at 10 µM equal to 14.2

Per the records, this compound ( Clc1cccc(/C=N/Nc2nc(N/N=C/c3cccc(Cl)c3Cl)nc(N3CCCCC3)n2)c1Cl [compound 7h] ) has inhibition at 10 µM equal to 31.7

Per the records, this compound ( Brc1ccccc1/C=N/Nc1nc(N/N=C/c2ccccc2Br)nc(N2CCOCC2)n1 [compound 6b] ) has inhibition at 10 µM equal to -2.7

Per the records, this compound ( Clc1cccc(/C=N/Nc2nc(N/N=C/c3cccc(Cl)c3Cl)nc(N3CCOCC3)n2)c1Cl [compound 6h] ) has inhibition at 10 µM equal to 31.6

Per the records, this compound ( Oc1ccc(/C=N/Nc2nc(N/N=C/c3ccc(O)c(O)c3)nc(N3CCCCC3)n2)cc1O [compound 7j] ) has inhibition at 10 µM equal to 6.65
